- conditionsUsed: in n-butanol, 288.15 K
endpoint: solubility (mole fraction)

> print(dat)
                   smilesinput                    endpoint  measvalue
1  COc1ccc2cccc(CCNC(C)=O)c2c1  solubility (mole fraction)     0.0214

====

- conditionsUsed: in isopropanol, 283.15 K
endpoint: solubility (mole fraction)

> print(dat)
                   smilesinput  measvalue
1  COc1ccc2cccc(CCNC(C)=O)c2c1     0.0107

====

- conditionsUsed: in ethyl acetate, 293.15 K
endpoint: solubility (mole fraction)

> print(dat)
                   smilesinput                    endpoint  measvalue
1  COc1ccc2cccc(CCNC(C)=O)c2c1  solubility (mole fraction)     0.0175
